# maps each entry to its IC50
Target: His-tagged N-terminal ATP binding domain (amino acid residues 9-236) of HSP90α (Homo sapiens, UniProt P07900)
Experiment: HSP90 inhibitor binding potency: TRF competition binding assay
Conditions: Table 1; competition with biotinylated radicicol
Method: HSP90 Inhibitor Binding Potency: TRF Binding Assay In this example, the binding potency of HSP90 inhibitors as measured by a TRF binding assay is described. TRF competition binding assays were performed to determine the binding potency (IC50 values) of HSP90 inhibitors. […] After gentle shaking for 10 minutes, the plates were read in VICTOR for europium counts.

The examples below pair each entry with its known result.
Cc1nc(N)nc2c1C(=O)NC(c1ccc(F)cc1-c1cccnc1Cl)C2 (stereo not shown) [Compound 16] : < 10 µM
Cc1nc(N)nc2c1C(=O)NC(c1ccc(F)cc1-c1ccccc1F)C2 (stereo not shown) [Compound 14] : < 10 µM
COc1cccc(-c2cc(F)ccc2C2Cc3nc(N)nc(C)c3C(=O)N2CC(C)(C)N2CCOCC2)c1 (stereo not shown) [Compound 39] : > 10 µM

Now, please, on to the next molecule.
Prompt: Return IC50 (reported value) for this molecule: Cc1nc(N)nc2c1C(=O)NC(c1ccc(F)cc1-c1cnn(C)c1)C2 (stereo not shown) [Compound 30]
Completion: < 10 µM

----------
target: His-tagged N-terminal ATP binding domain (amino acid residues 9-236) of HSP90α (Homo sapiens, UniProt P07900); assay: HSP90 inhibitor binding potency: TRF competition binding assay; details: Table 3; competition with biotinylated radicicol
pIC50: −log10 of the molar value.
Entries and their pIC50 values follow.

COc1cccc(-c2scnc2[C@H]2Cc3nc(N)nc(C)c3C(=O)N2)n1 [Compound 172] : > 5.00
COc1cncc(-c2cc(F)ccc2[C@H]2Cc3nc(N)nc(C)c3C(=O)N2CCO)n1 [Compound 113] : > 5.00
Cc1nc(N)nc2c1C(=O)N(Cc1ccccc1)[C@@H](c1ccc(F)cc1-c1ncc(Cl)c(O)n1)C2 [Compound 112] : < 5.00

Then there is this molecule:
Prompt: Provide only the value of recorded pIC50 for Cc1nc(N)nc2c1C(=O)N(CCCNC(=O)OC(C)(C)C)[C@@H](c1ccc(F)cc1Br)C2 [Compound 165]
Completion: < 5.00

----------
Catalogue of compounds with associated IC50
target: His-tagged N-terminal ATP binding domain (amino acid residues 9-236) of HSP90α (Homo sapiens, UniProt P07900); experiment: HSP90 inhibitor binding potency: TRF competition binding assay; details: Table 4; competition with biotinylated radicicol

See these solved cases before continuing.
Cc1nc(N)nc2c1C(=O)N[C@@H](c1ccc(F)cc1C#N)C2 : ≥ 10 µM
COc1cc(F)ccc1-c1cc(F)ccc1[C@H]1Cc2nc(N)ncc2C(=O)N1 : < 10 µM
COc1cnc(-c2cc(F)ccc2[C@H]2Cc3nc(N)nc(C)c3C(=O)N2)nc1OC : < 10 µM

Prompt: Recall and state the measured IC50 for CCc1nc(N)nc2c1C(=O)N[C@@H](c1ccccc1-c1csc(OC)n1)C2 .
Completion: ≥ 10 µM

Prompt: Please give measured IC50 of the following entry: COc1nc(-c2cc(F)ccc2[C@H]2Cc3nc(N)nc(C)c3C(=O)N2)ncc1Cl
Completion: < 10 µM

Prompt: Query IC50 for Cc1cccc(-c2cc(F)ccc2[C@H]2Cc3nc(N)ncc3C(=O)N2)c1
Completion: < 10 µM

Prompt: Answer with reported IC50 of Cc1nc(N)nc2c1C(=O)N[C@@H](c1ccc(F)cc1-c1n[nH]c(=O)o1)C2
Completion: ≥ 10 µM

Prompt: Complete the entry with IC50 for COc1ccc([C@H]2Cc3nc(N)nc(C)c3C(=O)N2)c(-c2cccc(OC)n2)c1
Completion: < 10 µM

Prompt: For Cc1nc(N)nc2c1C(=O)N[C@@H](c1ccccc1Br)C2 , write its IC50.
Completion: ≥ 10 µM

Prompt: In one line, give reported IC50 of the entry COc1ccc([C@H]2Cc3nc(N)nc(C)c3C(=O)N2)c(-c2cncc(OC)n2)c1 .
Completion: < 10 µM
